src = patent US20230272055A1

Subject Of Test: T1, Recombinant MBP-mutCALR Type 1 fusion protein (human)
T1 construct: custom made at Cepter; also called recombinant mutCALR protein
Assay Notes: SPR, IgG captured, 1:1 fit, Exp. 2
Please go through the items and note down their pKd.
One number for each entry, as −log10 of the molar value.

anti-mutCALR antibody clone 56 (antibody, human IgG1, lambda, N297A, V domains shown, human IgG1 N297A variant of clone 6) VH: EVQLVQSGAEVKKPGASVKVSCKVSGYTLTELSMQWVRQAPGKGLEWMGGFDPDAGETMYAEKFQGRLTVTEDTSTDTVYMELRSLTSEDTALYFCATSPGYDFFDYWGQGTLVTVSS VL: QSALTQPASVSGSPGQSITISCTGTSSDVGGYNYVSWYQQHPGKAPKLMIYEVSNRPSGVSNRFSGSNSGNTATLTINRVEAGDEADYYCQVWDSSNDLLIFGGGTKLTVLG | 8.51

GET /values?readout=pKd&item= anti-mutCALR antibody clone 177 (antibody, human IgG1, lambda, N297A, V domains shown, human IgG1 N297A variant of clone 17) VH: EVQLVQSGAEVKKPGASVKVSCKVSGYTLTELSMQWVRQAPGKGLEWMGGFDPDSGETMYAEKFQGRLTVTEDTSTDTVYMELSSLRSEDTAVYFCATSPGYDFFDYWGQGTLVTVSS VL: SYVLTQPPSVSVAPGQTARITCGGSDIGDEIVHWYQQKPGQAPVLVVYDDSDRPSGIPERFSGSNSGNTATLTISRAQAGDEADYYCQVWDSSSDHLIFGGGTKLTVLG
8.83
